B1: F1*; the commonest letter at each place (parent)
chain: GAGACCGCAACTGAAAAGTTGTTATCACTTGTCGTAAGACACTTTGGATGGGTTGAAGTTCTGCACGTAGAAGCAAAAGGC

Variants of: B1
TEST_DESCRIPTION: fraction ligated after 30 min (ligated reads / total reads); higher = more ligase activity
EXPERIMENTAL_CONDITIONS: with F1*sub RNA substrate (template-directed ligation), 42 °C
Label f if fraction ligated falls below 0.8; label t in every other case.

   alteration  category_label
0   G55C A56T               f
1   G50C A56G               f
2   G31T A39G               f
3   T25C A41G               f
4   A39G G50C               f
5   C33A G55A               t
6   T32A A39G               t
7   T30A T45A               f
8   G34A A36T               t
9        C33T               t

Exam item: decide whether the reported fraction ligated for A24G A56C is at least 0.8.
f

Exam item: decide whether the reported fraction ligated for C26T A57G is at least 0.8.
t

Exam item: decide whether the reported fraction ligated for A27T T49G is at least 0.8.
f

Exam item: decide whether the reported fraction ligated for T30G T32A is at least 0.8.
t

Exam item: decide whether the reported fraction ligated for A36T G50T is at least 0.8.
f

Exam item: decide whether the reported fraction ligated for G34C T35C is at least 0.8.
t
